biological target: urease (UreB subunit) (Helicobacter pylori); construct: native crude urease of H. pylori ATCC 43504 (UreA and UreB subunits); with UreA (urease subunit); test: urease activity inhibition in crude urease preparation, indophenol (ammonia release) assay; Western blot of subunits
Sequence (P69996 whole entry): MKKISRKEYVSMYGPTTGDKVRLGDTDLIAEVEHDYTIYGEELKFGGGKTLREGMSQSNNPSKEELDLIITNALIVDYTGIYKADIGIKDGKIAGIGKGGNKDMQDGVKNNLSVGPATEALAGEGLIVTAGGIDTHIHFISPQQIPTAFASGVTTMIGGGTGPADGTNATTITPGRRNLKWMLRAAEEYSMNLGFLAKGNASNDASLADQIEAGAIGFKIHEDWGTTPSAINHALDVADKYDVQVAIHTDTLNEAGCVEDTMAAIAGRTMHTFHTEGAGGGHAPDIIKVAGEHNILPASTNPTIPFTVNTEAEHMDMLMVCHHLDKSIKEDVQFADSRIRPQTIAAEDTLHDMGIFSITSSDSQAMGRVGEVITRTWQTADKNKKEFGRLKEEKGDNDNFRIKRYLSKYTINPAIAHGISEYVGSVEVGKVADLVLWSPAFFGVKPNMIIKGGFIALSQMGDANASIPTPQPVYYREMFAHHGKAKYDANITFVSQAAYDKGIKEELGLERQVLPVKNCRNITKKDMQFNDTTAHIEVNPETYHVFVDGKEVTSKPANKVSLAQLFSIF
measured_metric: pIC50
Please express pIC50 as -log10 of the molar concentration.

Reported pIC50, molecule O=C(O[C@@H]1Cc2c(O)cc(O)cc2O[C@@H]1c1cc(O)c(O)c(O)c1)c1cc(O)c(O)c(O)c1 [(–)-epigallocatechin gallate] : ____
4.52
